The reader will find reported IC50 values listed item by item below.
Molecular target: NRAS G12C (Homo sapiens (Human), UniProt P01111+P62937, G12C)
Sequence (P01111 whole entry G12C, one chain of several): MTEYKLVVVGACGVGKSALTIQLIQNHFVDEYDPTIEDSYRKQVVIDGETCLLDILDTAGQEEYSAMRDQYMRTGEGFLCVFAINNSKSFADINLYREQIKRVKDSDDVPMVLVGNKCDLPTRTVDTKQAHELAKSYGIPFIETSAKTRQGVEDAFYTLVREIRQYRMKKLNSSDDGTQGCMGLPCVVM
Assay: Ras-Raf (BRAF RBD) disruption / FRET / MOA assay, NRAS G12C
Format: biochemical
Conditions: read-out: IC50* NRAS G12C FRET data

The cases that follow already have their IC50 on record.
[
  {
    "compound": "CCn1c(-c2cccnc2[C@H](C)OC)c2c3cc(ccc31)-c1csc(n1)C[C@H](NC(=O)[C@H](C(C)C)N(C)C(=O)N1C[C@H]3CN(C(=O)C#CC(C)(C)N(C)C)CC[C@H]31)C(=O)N1CCC[C@H](N1)C(=O)OCC(C)(C)C2 (atropisomer, axis not shown) [Example A624]",
    "reported-endpoint": "IC50",
    "data-value": "10 to 100 nM"
  },
  {
    "compound": "C=CC(=O)N1CC[C@H](C(=O)N(C)[C@H](C(=O)N[C@H]2Cc3cccc(c3)-c3ccc4c(c3)c(c(-c3cccnc3[C@H](C)OC)n4CC)CC(C)(C)COC(=O)[C@@H]3CCCN(N3)C2=O)[C@@H](C)C(F)(F)F)C1 (atropisomer, axis not shown) [Example A640]",
    "reported-endpoint": "IC50",
    "data-value": "100 to 1000 nM"
  },
  {
    "compound": "CCn1c(-c2cccnc2[C@H](C)OC)c2c3cc(ccc31)-c1csc(n1)C[C@H](NC(=O)[C@H](C(C)C)N(C)C(=O)N1CCC13CN(C(=O)C#CC(C)(C)N(C)C)C3)C(=O)N1CCC[C@H](N1)C(=O)OCC(C)(C)C2 (atropisomer, axis not shown) [Example A656]",
    "reported-endpoint": "IC50",
    "data-value": "100 to 1000 nM"
  }
]

Ask | Given C=CC(=O)N1CCO[C@H]2CN(C(=O)N(C)[C@H](C(=O)N[C@H]3Cc4nc(n(C)n4)-c4ccc5c(c4)c(c(-c4cccnc4[C@H](C)OC)n5CC(F)(F)F)CC(C)(C)COC(=O)[C@@H]4CCCN(N4)C3=O)C(C)C)C[C@H]21 (atropisomer, axis not shown) [Example A575] , state its recorded IC50.
Reply | 10 to 100 nM

Ask | Given C=CC(=O)N1CC[C@H](C(=O)N(C)[C@H](C(=O)N[C@H]2Cc3nc(cs3)-c3ccc4c(c3)c(c(-c3cc5c(nc3[C@H](C)OC)CCN(C)C5)n4CC)CC(C)(C)COC(=O)[C@@H]3CCCN(N3)C2=O)C(C)C)C1 (atropisomer, axis not shown) [Example A472] , state its recorded IC50.
Reply | 100 to 1000 nM

Ask | Given C=CC(=O)N1CC[C@H]2[C@@H](C1)CN2C(=O)N(C)[C@H](C(=O)N[C@H]1Cc2nc(cs2)-c2ccc3c(c2)c(c(-c2cccnc2[C@H](C)OC)n3CC)CC(C)(C)COC(=O)[C@@H]2CCCN(N2)C1=O)C(C)C (atropisomer, axis not shown) [Example A687] , state its recorded IC50.
Reply | 100 to 1000 nM

Ask | Given C=CC(=O)N1CC[C@H](C(=O)N(C)[C@H](C(=O)N[C@H]2CC3=NN=C(O3)c3ccc4c(c3)c(c(-c3cccnc3[C@H](C)OC)n4CC)CC(C)(C)COC(=O)[C@@H]3CCCN(N3)C2=O)C(C)C)C1 (atropisomer, axis not shown) [Example A447] , state its recorded IC50.
Reply | 100 to 1000 nM

Ask | Given CCn1c(-c2cccnc2[C@H](C)OC)c2c3cc(ccc31)-c1cccc(c1)C[C@H](NC(=O)[C@H](C(C)C)N(C)C(=O)[C@H]1CCN(C(=O)C#C[C@]3(C)CCCN3C)C1)C(=O)N1CCC[C@H](N1)C(=O)OCC(C)(C)C2 [Example A317] , state its recorded IC50.
Reply | 10 to 100 nM

Ask | Given CCn1c(-c2cccnc2COC)c2c3cc(ccc31)-c1cc(O)cc(c1)C[C@H](NC(=O)[C@H](C(C)C)N(C)C(=O)[C@H]1C[C@@H](C)N(C(=O)C#CCN(C)C)C1)C(=O)N1CCC[C@H](N1)C(=O)OCC(C)(C)C2 [Example A175] , state its recorded IC50.
Reply | < 10 nM

----------
Target: KRAS G13D (Homo sapiens (Human), UniProt P01116+P62937, G13D)
Sequence (P01116-2 other isoform, or with tags, fused parts or gaps G13D): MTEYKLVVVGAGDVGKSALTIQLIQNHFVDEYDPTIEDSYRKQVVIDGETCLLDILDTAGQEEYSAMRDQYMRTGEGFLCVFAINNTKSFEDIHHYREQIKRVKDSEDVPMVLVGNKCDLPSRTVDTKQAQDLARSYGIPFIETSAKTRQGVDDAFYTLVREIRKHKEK
Sequence (P62937 whole entry): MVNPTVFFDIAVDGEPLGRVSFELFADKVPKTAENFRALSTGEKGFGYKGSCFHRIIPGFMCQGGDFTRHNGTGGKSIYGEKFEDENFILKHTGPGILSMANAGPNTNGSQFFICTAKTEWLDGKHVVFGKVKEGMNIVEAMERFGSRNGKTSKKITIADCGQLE
Assay: Ras-Raf (BRAF RBD) disruption / FRET / MOA assay, KRAS G13D
Assay type: biochemical
Details: read-out: IC50* KRAS G13D FRET data
reported-endpoint: IC50

The cases that follow already have their IC50 on record.
[
  {
    "molecule": "C=CC(=O)N1CC[C@H](C(=O)N(C)[C@H](C(=O)N[C@H]2Cc3nc(cs3)-c3ccc4c(c3)c(c(-c3cccnc3[C@H](C)OC)n4CC)CC(C)(C)COC(=O)[C@@H]3CCCN(N3)C2=O)C(C)C)C1 (atropisomer, axis not shown)",
    "data-value": "> 10 µM"
  },
  {
    "molecule": "C/C=C/S(=O)(=O)N1CC[C@H](C(=O)N(C)[C@H](C(=O)N[C@H]2Cc3cc(O)cc(c3)-c3ccc4c(c3)c(c(-c3cccnc3[C@H](C)OC)n4CC)CC(C)(C)COC(=O)[C@@H]3CCCN(N3)C2=O)C(C)C)C1 (atropisomer, axis not shown)",
    "data-value": "0.1 to 1 µM"
  },
  {
    "molecule": "C=CC(=O)N1CCN(C(=O)N(C)[C@H](C(=O)N[C@H]2Cc3cc(O)cc(c3)-c3ccc4c(c3)c(c(-c3ccccc3CCOC)n4CC)CC(C)(C)COC(=O)[C@@H]3CCCN(N3)C2=O)C(C)C)C[C@H]1COC",
    "data-value": "1 to 10 µM"
  }
]

Ask | Given CCn1c(-c2cncnc2)c2c3cc(ccc31)-c1cc(O)cc(c1)C[C@H](NC(=O)[C@H](C(C)C)N(C)C(=O)[C@H]1CCN(C(=O)C#CCN3CCOCC3)C1)C(=O)N1CCC[C@H](N1)C(=O)OCC(C)(C)C2 , state its recorded IC50.
Reply | > 10 µM

----------
Molecular target: KRAS G13D (Homo sapiens (Human), UniProt P01116+P62937, G13D)
Experiment: Ras-Raf (BRAF RBD) disruption / FRET / MOA assay, KRAS G13D
Format: biochemical
Settings: read-out: IC50* KRAS G13D FRET data
pIC50: −log10 of the molar value.
The reader will find reported pIC50 values listed item by item below.

[
  {
    "molecule": "C=CC(=O)N1CC[C@H](C(=O)N(C)[C@H](C(=O)N[C@H]2Cc3cccc(c3)-c3ccc4c(c3)c(c(-c3cc(C5CN(C)C5)cnc3[C@H](C)OC)n4CC)CC(C)(C)COC(=O)[C@@H]3CCCN(N3)C2=O)C(C)C)C1 (atropisomer, axis not shown) [Example A392]",
    "reported-endpoint": "pIC50",
    "data-value": "< 5.00"
  },
  {
    "molecule": "C=CC(=O)N(C)[C@H]1CC1N(C)C(=O)N(C)[C@H](C(=O)N[C@H]1Cc2nc(cs2)-c2ccc3c(c2)c(c(-c2cccnc2[C@H](C)OC)n3CC)CC(C)(C)COC(=O)[C@@H]2CCCN(N2)C1=O)C(C)C (stereo partly shown) [Example A738]",
    "reported-endpoint": "pIC50",
    "data-value": "5.00 to 6.00"
  },
  {
    "molecule": "C=CC(=O)N1CC(N(C)C(=O)N(C)[C@H](C(=O)N[C@H]2Cc3nc(cs3)-c3ccc4c(c3)c(c(-c3cccnc3[C@H](C)OC)n4CC(F)(F)F)CC(C)(C)COC(=O)[C@@H]3CCCN(N3)C2=O)C(C)C)C1 (atropisomer, axis not shown) [Example A711]",
    "reported-endpoint": "pIC50",
    "data-value": "6.00 to 7.00"
  }
]

Ask | Given CCn1c(-c2cccnc2[C@H](C)OC)c2c3cc(ccc31)-c1cc(CF)cc(c1)C[C@H](NC(=O)[C@@H](COC1CN(C(=O)C#CC(C)(C)N(C)C)C1)C(C)C)C(=O)N1CCC[C@H](N1)C(=O)OCC(C)(C)C2 (atropisomer, axis not shown) [Example A587] , state its recorded pIC50.
Reply | < 5.00

----------
The reader will find reported pIC50 values listed item by item below.
Target: KRAS G12S (Homo sapiens (Human), UniProt P01116+P62937, G12S)
Sequence (P01116-2 other isoform, or with tags, fused parts or gaps G12S): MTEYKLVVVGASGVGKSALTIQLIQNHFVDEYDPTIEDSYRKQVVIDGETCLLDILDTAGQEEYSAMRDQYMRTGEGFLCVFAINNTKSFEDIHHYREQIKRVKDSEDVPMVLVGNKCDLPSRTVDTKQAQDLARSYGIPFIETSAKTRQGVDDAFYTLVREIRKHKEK
Sequence (P62937 whole entry): as the sequence (P62937 whole entry) above
Assay: Ras-Raf (BRAF RBD) disruption / FRET / MOA assay, KRAS G12S
Assay type: biochemical
Settings: Ras-Raf disruption/FRET/MOA assay; class symbols; read-out: KRAS G12S FRET data IC50
pIC50: −log10 of the molar value.

The cases that follow already have their pIC50 on record.
[
  {
    "molecule": "C=CC(=O)N1CCO[C@@]2(CCN(C(=O)N(C)[C@H](C(=O)N[C@H]3Cc4nc(cs4)-c4ccc5c(c4)c(c(-c4cccnc4[C@H](C)OC)n5CC(F)(F)F)CC(C)(C)COC(=O)[C@@H]4CCCN(N4)C3=O)C(C)C)C2)C1 (atropisomer, axis not shown)",
    "reported-endpoint": "pIC50",
    "data-value": "6.00 to 7.00"
  },
  {
    "molecule": "C=CC(=O)N1CC[C@H](C(=O)N(C)[C@H](C(=O)N[C@H]2Cc3cc(O)cc(c3)-c3ccc4c(c3)c(c(-c3cccnc3CN(C)C)n4CC)CC(C)(C)COC(=O)[C@@H]3CCCN(N3)C2=O)C(C)C)C1",
    "reported-endpoint": "pIC50",
    "data-value": "5.00 to 6.00"
  },
  {
    "molecule": "CCn1c(-c2cccnc2COC)c2c3cc(ccc31)-c1cc(O)cc(c1)C[C@H](NC(=O)[C@H](C(C)C)N(C)C(=O)[C@H]1CCN(C(=O)C#CCN3CCN(C)CC3)C1)C(=O)N1CCC[C@H](N1)C(=O)OCC(C)(C)C2",
    "reported-endpoint": "pIC50",
    "data-value": "6.00 to 7.00"
  }
]

Let us move to another entry and its pIC50.
Ask | Given CCn1c(-c2ccccc2CN(C)C)c2c3cc(ccc31)-c1cc(O)cc(c1)C[C@H](NC(=O)[C@@H](C(C)C)N(C)C(=O)c1ncc(NC(=O)/C=C/CN(C)C)n1C)C(=O)N1CCC[C@H](N1)C(=O)OCC(C)(C)C2 , state its recorded pIC50.
Reply | < 5.00
